# TESTED_TARGET: T1, soluble HLA-A2 MAGE-A4 (…) tetramer (human)
# T1 construct: Bought tetramer reagent; also called MAGE-A4/HLA tetramer reagent; HLA-A02:01 MAGE-A4 tetramer
# PROCEDURE_TEXT: flow cytometry tetramer staining; % with MAGE-A4 tetramer divided by % with MAGE-A8 tetramer (reference)
Here, each record is paired with measured MAGE-A4/MAGE-A8 (ratio of % tetramer in Ag+ gate) data.
When you answer, write just the number.

Worked examples follow.
BINDER	READING
PN45581 (TCR, V domains shown, stained with anti-mouse TCR constant region H57-597; full-length chains on transfected CHO cells; also called TCR No. 44) V domain 1: AQKITQTQPGMFVQEKEAVTLDCTYDTSDPSYGLFWYKQPSSGEMIFLIYQGSYDQQNATEGRYSLNFQKARKSANLVISASQLGDSAMYFCAMREGPGNNARLMFGDGTQLVVKP V domain 2: EAQVTQTPRYLITVTGKKLTVTCSQNMNHEYMSWYRQDPGLGLRQIYYSMNVEVTDKGDVPEGYKVSRKEKRNFPLILESPSPNQTSLYFCASSLWTGGGYTFGSGTRLTVV	18.7
PN45460 (TCR, V domains shown, full-length chains on transfected CHO cells; also called TCR No. 49) V domain 1: GNSVTQMEGPVTLSEEAFLTINCTYTATGYPSLFWYVQYPGEGLQLLLKATKADDKGSNKGFEATYRKETTSFHLEKGSVQVSDSAVYFCALSDTRDDKIIFGKGTRLHILP V domain 2: EAQVTQSPRYLITVTGKKLTVTCSQNMNHEYMSWYRQDPGLGLRQIYYSMNVEVTDKGDVPEGYKVSRKEKRNFPLILESPSPNQTSLYFCASSPGTGGFSPLHFGNGTRLTVT	2.08

Using the record for PN45489 (TCR, V domains shown, stained with anti-mouse TCR constant region H57-597; full-length chains on transfected CHO cells; also called TCR No. 48) V domain 1: TQLLEQSPQFLSIQEGENLTVYCNSSSVFSSLQWYRQEPGEGPVLLVTVVTGGEVKKLKRLTFQFGDARKDSSLHITAAQPGDTGLYLCAEDGGSQGNLIFGKGTKLSVKP V domain 2: DVKVTQTSRYLVKRTGEKVFLECVQDMDHENMFWYRQDPGLGLRLIYFSYDVKMKEKGDIPEGYSVSREKKERFSLILESASTNQTSMYLCASSLQGRYYGYTFGSGTRLTVV , state its measured MAGE-A4/MAGE-A8 (ratio of % tetramer in Ag+ gate).
2.5

Consider the binder PN45481 (TCR, V domains shown, full-length chains on transfected CHO cells; also called TCR No. 54) V domain 1: GNSVTQMEGPVTLSEEAFLTINCTYTATGYPSLFWYVQYPGEGLQLLLKATKADDKGSNKGFEATYRKETTSFHLEKGSVQVSDSAVYFCALSDTRDDKIIFGKGTRLHILP V domain 2: DVKVTQSSRYLVKRTGEKVFLECVQDMDHENMFWYRQDPGLGLRLIYFSYDVKMKEKGDIPEGYSVSREKKERFSLILESASTNQTSMYLCASSLQGRYYGYTFGSGTRLTVV and give its recorded MAGE-A4/MAGE-A8 (ratio of % tetramer in Ag+ gate).
1.21
